Test: CMV-Luciferase Counterscreen for Inhibitors of ATXN expression; also: nearly all actives have a fitted effect of over 55% in size
Details: HEK-293 CMV-luciferase reporter, luminescence, 24 h; series mostly up to 57.5 µM
The campaign covered roughly 2,100 compounds. About 670 (32%) were called active. About 50% were inconclusive and are not listed. Calls follow the shape of the dose curve; as a rule, active = well fitted inhibition curve with a large enough effect; inconclusive = small, poorly fitted or top-dose-only effect; inactive = no such curve, though single readings can be large or run the other way. This is one part of the list.
# valid calls are active, inactive; nothing else

Cc1noc(C)c1CSCC(=O)Nc1nc(-c2ccc(F)c(F)c2)cs1
active
Cc1ccc(C)c(/C=C/C(=O)c2ccccc(=O)c2O)c1
inactive
COc1ccc2oc(/C=C/N(C)C)c(C(=O)c3ccc(Cl)cc3)c2c1
active
Cc1c(Cl)c([N+](=O)[O-])nn1Cc1ccc(C(=O)N/N=C\c2cc(Cl)ccc2O)o1
active
CCCCOc1ccc(C(=O)NNC(=O)c2cnccn2)cc1OC
active

GET /call?item= "COc1ccc(N(C)S(=O)(=O)c2ccc(Cl)c(C(=O)NCCc3ccc(Cl)cc3)c2)cc1" returns the recorded outcome of this test.
active

Called result for "CCCC(=O)Nc1ccc2nc(SCC(=O)N3CCCC3)sc2c1"
inactive

What call does the record list for "Cc1cc(C)nc(N/N=C2/CCCC/C2=C\c2ccccc2)n1" ?
active

Recorded test call requested for "CCn1c2ccccc2c2cc(/C=N/NC(=O)c3ccc(O)cc3)ccc21"
inactive

What call does the record list for C=CCOC(=O)C1=C(C)NC(SCC)=C(C#N)C1c1ccc(Cl)cc1 (configuration not stated) ?
active

Tell me the recorded outcome of this test for "COc1ccccc1N(CC(=O)N/N=C(\C)c1ccccc1O)S(=O)(=O)c1ccc(C)cc1" .
active

---

Experiment: CMV-Luciferase Counterscreen for Inhibitors of ATXN expression; also: nearly all actives have a fitted effect of over 55% in size
Conditions: HEK-293 CMV-luciferase reporter, luminescence, 24 h; series mostly up to 57.5 µM
Screen size: about 2,100 compounds; about 670 (32%) were called active. Inconclusive results (about 50%) are left out. The call rests on the fitted dose curve; in most records, active means well fitted inhibition curve with a large enough effect; inconclusive means small, poorly fitted or top-dose-only effect; inactive means no such curve, though single readings can be large or run the other way. The list shows a part of the results.
Outcome field: choose from active, inactive

How was "O=C(Nc1nc(-c2ccccn2)cs1)c1ccccc1-n1cnnn1" classified in this test?
active

---

Assay: CMV-Luciferase Counterscreen for Inhibitors of ATXN expression; also: nearly all actives have a fitted effect of over 55% in size
Conditions: HEK-293 CMV-luciferase reporter, luminescence, 24 h; series mostly up to 57.5 µM
Screen size: about 2,100 compounds; about 670 (32%) were called active. Not shown: some 50% with an inconclusive outcome. Calls follow the shape of the dose curve; as a rule, active = well fitted inhibition curve with a large enough effect; inconclusive = small, poorly fitted or top-dose-only effect; inactive = no such curve, though single readings can be large or run the other way. The list shows a part of the results.
Response enum: active, inactive

COc1ccc(-c2nn(-c3ccccc3)cc2C(=O)NC(=S)NNC(=O)c2ccncc2)cc1
active
CCOc1cc(C=C(C(=O)OC)C(=O)OC)ccc1OCc1ccc([N+](=O)[O-])cc1
active
NC(=O)Cn1c(=O)n(CCc2ccccc2)c(=O)c2c3c(sc21)CCCC3
inactive

Hi, do you know how "CN(C)CCNc1ccc(CO)c2sc3ccc(O)cc3c(=O)c12" came out in this test?
active

Give the logged outcome of this assay for the following compound: "CSCC[C@H](NC(=O)OC(C)(C)C)C(=O)N/N=C/c1cccc2cccnc12"
inactive

---

Assay: CMV-Luciferase Counterscreen for Inhibitors of ATXN expression; also: nearly all actives have a fitted effect of over 55% in size; also: potency is read from the fitted curve at half-maximal effect
Conditions: HEK-293 CMV-luciferase reporter, luminescence, 24 h; series mostly up to 57.5 µM
From the text: PI: Daniel Scoles Ph.D. University of Utah School of Medicine, Salt Lake City, Utah MLPCN Grant: NS073009 Spinocerebellar ataxia type 2 (SCA2) is a multisystem neurodegenerative disease caused by a dominantly acting mutation leading to expansion of a polyQ domain in the ataxin-2 protein (ATXN2). SCA2 patients develop progressive ataxia and later lose function in other neuronal systems. […] Here we describe a 5-7 dose quantitative high thoroughput screen (qHTS) for compounds lowering ATXN2 expression. […]
About 670 (32%) of roughly 2,100 compounds were called active. Inconclusive results (about 50%) are left out. The list shows a part of the results.
Quantity Measured: Potency

Here's what some known entries look like.
CC[n+]1c(/C=C/N(C)c2ccccc2)oc2ccc(F)cc21
15.8 µM (active)
CC[C@@]1(O)C(=O)OCc2c1cc1n(c2=O)Cc2cc3c(CN(C)C)c(O)ccc3nc2-1
11.2 µM (active)
CCc1ccc(N2CC(C(=O)N/N=C/c3cc([N+](=O)[O-])ccc3O)CC2=O)cc1 (stereo not given)
10 µM (active)
Cc1ccc(-c2cc(C(=O)NCCCN3CCOCC3)no2)cc1
8.91 µM (active)
CN(C)C(=O)CSc1nc(-c2ccccc2)nc2c1CCCC2
inactive
CCN(CC)c1cc(C)c2cc(NC(=O)c3ccccc3OC)ccc2n1
inactive
CCOC(=O)N1CCN(c2ccnc3cc(Cl)ccc23)CC1
2.51 µM (active)
CCOc1ccccc1C(=O)Nc1ccc2nc(N3CCN(c4ncccn4)CC3)cc(C)c2c1
11.2 µM (active)
O=C(c1ccco1)N1CCN(c2ccnc3cc(Cl)ccc23)CC1
14.1 µM (active)

Let's switch to this compound now.
Supply reported Potency belonging to this compound: "COc1ccc(/C=N/NC(=O)c2nc(-c3ccccc3)n(-c3ccccc3)n2)c(O)c1"
8.91 µM (active)
